tested on: C. neoformans (2.3201); assay: Antifungal activity, broth microdilution; format: cell-based; conditions: Cryptococcus neoformans; C. neoformans 2.3201; read-out: MIC
Each record here notes measured log10 of MIC.
Scale: log10; quantity: MIC; unit before log: µg/mL

These recorded examples may help you get a feel for the data.
Cc1ccc(N2C(=O)CSC2c2c[n+]([O-])c3ccc(Cl)cc3[n+]2[O-])cc1 (stereo not shown) [2w] ... 0.60
O=C1CSC(c2c[n+]([O-])c3ccc(Cl)cc3[n+]2[O-])N1c1ccc(Cl)cc1 (stereo not shown) [2z] ... 0.60
O=C1CSC(c2c[n+]([O-])c3ccc(F)cc3[n+]2[O-])N1c1ccc(Cl)cc1 (stereo not shown) [2u] ... 0.60
COc1ccc(N2C(=O)CSC2c2c[n+]([O-])c3ccc(C)cc3[n+]2[O-])cc1 (stereo not shown) [2i] ... 1.20
Cc1ccc2c(c1)[n+]([O-])c(C1SCC(=O)N1c1ccc(Cl)cc1)c[n+]2[O-] (stereo not shown) [2k] ... 1.51
O=C1CSC(c2c[n+]([O-])c3ccc(Cl)cc3[n+]2[O-])N1c1ccc(F)cc1 (stereo not shown) [2y] ... 0.30
O=C1CSC(c2c[n+]([O-])c3ccc(Cl)cc3[n+]2[O-])N1c1ccccc1 (stereo not shown) [2v] ... 0.90
COc1ccc(N2C(=O)CSC2c2c[n+]([O-])c3ccc(Cl)cc3[n+]2[O-])cc1 (stereo not shown) [2x] ... 0.90

Input line: Recorded log10 of MIC of Cc1ccc(N2C(=O)CSC2c2c[n+]([O-])c3ccc(F)cc3[n+]2[O-])cc1 (stereo not shown) [2r] , please.
Output line: 1.20

---

Each record here notes measured melting point.

COc1ccc(N2C(=O)CSC2c2c[n+]([O-])c3ccc(C)cc3[n+]2[O-])cc1 (stereo not drawn) ... 255 to 259 °C
O=C1CSC(c2c[n+]([O-])c3ccc(Cl)cc3[n+]2[O-])N1c1ccccc1 (stereo not drawn) ... 248 to 250 °C
Cc1ccc(N2C(=O)CSC2c2c[n+]([O-])c3ccc(C)cc3[n+]2[O-])cc1 (stereo not drawn) ... 257 to 259 °C
COc1ccc2c(c1)[n+]([O-])c(C1SCC(=O)N1c1ccc(C)cc1)c[n+]2[O-] (stereo not drawn) ... 257 to 259 °C
O=C1CSC(c2c[n+]([O-])c3ccccc3[n+]2[O-])N1C1CC1 (stereo not drawn) ... 249 to 252 °C
O=C1CSC(c2c[n+]([O-])c3ccccc3[n+]2[O-])N1c1ccc(Cl)cc1 (stereo not drawn) ... 249 to 252 °C
O=C1CSC(c2c[n+]([O-])c3ccc(F)cc3[n+]2[O-])N1c1ccccc1 (stereo not drawn) ... 249 to 252 °C
COc1ccc(N2C(=O)CSC2c2c[n+]([O-])c3ccccc3[n+]2[O-])cc1 (stereo not drawn) ... 255 to 257 °C

Then this compound:
Input line: Recorded melting point of COc1ccc(N2C(=O)CSC2c2c[n+]([O-])c3ccc(OC)cc3[n+]2[O-])cc1 (stereo not drawn) , please.
Output line: 258 to 260 °C

---

Each record here notes measured melting point.

COc1ccc(N2C(=O)CSC2c2c[n+]([O-])c3ccc(Cl)cc3[n+]2[O-])cc1 (stereo not shown) ... 252 to 254 °C
COc1ccc(N2C(=O)CSC2c2c[n+]([O-])c3ccc(F)cc3[n+]2[O-])cc1 (stereo not shown) ... 251 to 253 °C
COc1ccc2c(c1)[n+]([O-])c(C1SCC(=O)N1c1ccc(Cl)cc1)c[n+]2[O-] (stereo not shown) ... 253 to 256 °C
Cc1ccc2c(c1)[n+]([O-])c(C1SCC(=O)N1c1ccccc1)c[n+]2[O-] (stereo not shown) ... 255 to 257 °C

Input line: Recorded melting point of Cc1ccc(N2C(=O)CSC2c2c[n+]([O-])c3ccccc3[n+]2[O-])cc1 (stereo not shown) , please.
Output line: 251 to 253 °C

Input line: Recorded melting point of O=C1CSC(c2c[n+]([O-])c3ccccc3[n+]2[O-])N1c1ccccc1 (stereo not shown) , please.
Output line: 245 to 248 °C

---

tested on: Mtb H37Rv (ATCC27294); assay: Antimycobacterial activity, microplate Alamar blue assay (MABA); assay type: cell-based, Mycobacterium tuberculosis; conditions: Mycobacterium tuberculosis, Mtb H37Rv, repeated in Table 5 for the 3D-QSAR models; read-out: MIC
Each record here notes measured log10 of MIC.
Scale: log10; quantity: MIC; unit before log: mg/L

These recorded examples may help you get a feel for the data.
O=C1CSC(c2c[n+]([O-])c3ccc(F)cc3[n+]2[O-])N1c1ccccc1 (centres unmarked) [2q] ... 0.80
O=C1CSC(c2c[n+]([O-])c3ccc(Cl)cc3[n+]2[O-])N1c1ccc(Cl)cc1 (centres unmarked) [2z] ... 0.19
Cc1ccc(N2C(=O)CSC2c2c[n+]([O-])c3ccc(Cl)cc3[n+]2[O-])cc1 (centres unmarked) [2w] ... 0.80
COc1ccc(N2C(=O)CSC2c2c[n+]([O-])c3ccccc3[n+]2[O-])cc1 (centres unmarked) [2c] ... 1.10
COc1ccc2c(c1)[n+]([O-])c(C1SCC(=O)N1c1ccc(C)cc1)c[n+]2[O-] (centres unmarked) [2m] ... 2.00

Input line: Recorded log10 of MIC of Cc1ccc(N2C(=O)CSC2c2c[n+]([O-])c3ccc(C)cc3[n+]2[O-])cc1 (centres unmarked) [2h] , please.
Output line: 1.40

Input line: Recorded log10 of MIC of O=C1CSC(c2c[n+]([O-])c3ccccc3[n+]2[O-])N1C1CC1 (centres unmarked) [2f] , please.
Output line: 1.40

Input line: Recorded log10 of MIC of Cc1ccc(N2C(=O)CSC2c2c[n+]([O-])c3ccccc3[n+]2[O-])cc1 (centres unmarked) [2b] , please.
Output line: 1.10

Input line: Recorded log10 of MIC of O=C1CSC(c2c[n+]([O-])c3ccccc3[n+]2[O-])N1c1ccc(F)cc1 (centres unmarked) [2d] , please.
Output line: 0.50

Input line: Recorded log10 of MIC of COc1ccc(N2C(=O)CSC2c2c[n+]([O-])c3ccc(Cl)cc3[n+]2[O-])cc1 (centres unmarked) [2x] , please.
Output line: 1.10

Input line: Recorded log10 of MIC of COc1ccc2c(c1)[n+]([O-])c(C1SCC(=O)N1c1ccc(Cl)cc1)c[n+]2[O-] (centres unmarked) [2p] , please.
Output line: 1.70

Input line: Recorded log10 of MIC of O=C1CSC(c2c[n+]([O-])c3ccc(Cl)cc3[n+]2[O-])N1c1ccccc1 (centres unmarked) [2v] , please.
Output line: 0.50

Input line: Recorded log10 of MIC of O=C1CSC(c2c[n+]([O-])c3ccc(F)cc3[n+]2[O-])N1c1ccc(F)cc1 (centres unmarked) [2t] , please.
Output line: 0.19

Input line: Recorded log10 of MIC of COc1ccc2c(c1)[n+]([O-])c(C1SCC(=O)N1c1ccccc1)c[n+]2[O-] (centres unmarked) [2l] , please.
Output line: 2.00

---

Each record here notes measured melting point.

These recorded examples may help you get a feel for the data.
O=C1CSC(c2c[n+]([O-])c3ccc(Cl)cc3[n+]2[O-])N1c1ccc(F)cc1 (stereo not shown) ... 251 to 253 °C
Cc1ccc(N2C(=O)CSC2c2c[n+]([O-])c3ccc(F)cc3[n+]2[O-])cc1 (stereo not shown) ... 249 to 251 °C
Cc1ccc(N2C(=O)CSC2c2c[n+]([O-])c3ccc(Cl)cc3[n+]2[O-])cc1 (stereo not shown) ... 250 to 252 °C
O=C1CSC(c2c[n+]([O-])c3ccc(Cl)cc3[n+]2[O-])N1c1ccc(Cl)cc1 (stereo not shown) ... 252 to 255 °C
Cc1ccc2c(c1)[n+]([O-])c(C1SCC(=O)N1c1ccc(Cl)cc1)c[n+]2[O-] (stereo not shown) ... 244 to 248 °C
COc1ccc2c(c1)[n+]([O-])c(C1SCC(=O)N1c1ccc(F)cc1)c[n+]2[O-] (stereo not shown) ... 255 to 257 °C

Then this molecule:
Input line: Recorded melting point of O=C1CSC(c2c[n+]([O-])c3ccc(F)cc3[n+]2[O-])N1c1ccc(F)cc1 (stereo not shown) , please.
Output line: 250 to 253 °C

Provenance of the data: paper PMC7424068
